test system: T1, cynomolgus monkey CD73 antigen (cynomolgus monkey, UniProt A0A2K5V5U7 27-547)
T1 construct: also called Biotinylated cynomolgus monkey CD73
T1 sequence: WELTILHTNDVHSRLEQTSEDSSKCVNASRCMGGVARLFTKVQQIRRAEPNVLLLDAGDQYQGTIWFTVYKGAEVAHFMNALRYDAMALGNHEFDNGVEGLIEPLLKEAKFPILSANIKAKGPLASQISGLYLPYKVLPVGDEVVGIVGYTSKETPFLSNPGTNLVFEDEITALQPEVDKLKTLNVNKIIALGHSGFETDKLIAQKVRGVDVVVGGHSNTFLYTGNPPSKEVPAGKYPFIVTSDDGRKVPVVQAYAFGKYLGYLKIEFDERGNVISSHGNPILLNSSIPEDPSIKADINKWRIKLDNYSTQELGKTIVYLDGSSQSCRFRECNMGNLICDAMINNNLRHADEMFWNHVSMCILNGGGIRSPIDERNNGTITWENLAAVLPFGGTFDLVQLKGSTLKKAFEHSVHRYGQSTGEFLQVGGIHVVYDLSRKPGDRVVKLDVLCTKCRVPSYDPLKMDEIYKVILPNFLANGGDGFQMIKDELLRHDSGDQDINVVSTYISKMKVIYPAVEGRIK
assay protocol: ForteBio BLI; antigen on sensor, 100 nM scFv; monovalent; 1:1 model
measured metric: Kd (nM)
Give bare numbers, in nM.

Here's what some known entries look like.
- binder: "scfv fragment of ADI-37543 (scFv, V domains shown) VH: QVQLQESGPGLVKPSETLSLTCAVSGYSISSGYYWAWIRQPPGKGLEWIGSIFHSGFTFYNPSLKSRVTISVDTSKNQFSLKLSSVTAADTAVYYCARASIYTPPPEYFQHWGQGTLVTVSS VL: DIQMTQSPSTLSASVGDRVTITCRASQSISSWLAWYQQKPGKAPKLLIYDASSLESGVPSRFSGSGSGTEFTLTISSLQPDDFATYYCQQSRIYSTFGGGTKVEIK"
  Kd (nM): 2.99
- binder: "scfv fragment of ADI-37503 (scFv, V domains shown) VH: EVQLLESGGGLVQPGGSLRLSCAASGFTFSNYAMSWVRQAPGKGLEWVSAISGRASSTYYADSVKGRFTISRDNSKNTLYLQMNSLRAEDTAVYYCARGGPYGSGSYWDTFDYWGQGTLVTVSS VL: EIVMTQSPATLSVSPGERATLSCRASQSVSSNLAWYQQKPGQAPRLLIYGASTRATGIPARFSGSGSGTEFTLTISSLQSEDFAVYYCQQYTNHYTFGGGTKVEIK"
  Kd (nM): 6.61
- binder: "scfv fragment of ADI-37507 (scFv, V domains shown) VH: EVQLLESGGGLVQPGGSLRLSCAASGFTFLNYAMAWVRQAPGKGLEWVSAISGRATSTYYADSVKGRFTISRDNSKNTLYLQMNSLRAEDTAVYYCARGGPYGSGSYWDTFDYWGQGTLVTVSS VL: EIVMTQSPATLSVSPGERATLSCRASQSVSSNLAWYQQKPGQAPRLLIYGASTRATGIPARFSGSGSGTEFTLTISSLQSEDFAVYYCQQYTNHYTFGGGTKVEIK"
  Kd (nM): 23.7

Next binder, Kd to be filled in.
State the recorded Kd for this entry: scfv fragment of ADI-37532 (scFv, V domains shown) VH: QVQLVESGGGVVQPGRSLRLSCAASGFTFSSYSMHWVRQAPGKGLEWVAHIVEGSDKYYADSVKGRFTISRDNSKNTLYLQMNSLRAEDTAVYYCARSRYDWSLFDIWGQGTMVTVSS VL: EIVLTQSPGTLSLSPGERATLSCGASQSVSSSYLAWYQQKPGQAPRLLIYGASSRATGIPDRFSGSGSGTDFTLTISRLEPEDFAVYYCQQYVLYPFTFGGGTKVEIK 0.53

The values you see were collected from patent US20230312741A1.
